Measured values drawn from ChEMBL document CHEMBL1122664 for this set.

# tested-target: Aromatase (Homo sapiens)
# Sequence (P11511 whole entry): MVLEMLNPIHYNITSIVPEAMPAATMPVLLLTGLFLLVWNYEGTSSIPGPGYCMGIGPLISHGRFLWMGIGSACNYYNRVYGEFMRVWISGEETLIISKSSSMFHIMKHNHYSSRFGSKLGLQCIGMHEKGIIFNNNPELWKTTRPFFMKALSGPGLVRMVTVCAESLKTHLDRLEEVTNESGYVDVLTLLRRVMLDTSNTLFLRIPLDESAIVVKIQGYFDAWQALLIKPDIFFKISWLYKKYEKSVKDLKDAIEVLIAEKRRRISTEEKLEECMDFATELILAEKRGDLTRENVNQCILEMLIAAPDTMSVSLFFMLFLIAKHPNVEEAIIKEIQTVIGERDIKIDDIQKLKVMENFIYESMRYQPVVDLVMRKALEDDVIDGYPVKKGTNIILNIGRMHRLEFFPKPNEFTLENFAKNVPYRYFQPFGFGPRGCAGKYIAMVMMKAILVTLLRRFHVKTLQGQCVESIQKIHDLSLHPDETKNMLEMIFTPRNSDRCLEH
# assay-remarks: Inhibition of 0.25 uM [1-3H]-androst-4-ene-3,17-dione binding to Cytochrome P450 19A1
test-readout: Inhibition (%)
Answer format: numeric, % implied, no suffix.

// below: answered compounds
C[C@]12CCC(=O)C(O)=C1CC[C@@H]1[C@@H]2CC[C@]2(C)C(=O)CC[C@@H]12 [FORMESTANE] : 50.1
C[C@]12CCC(=O)C=C1C[C@@H](Sc1ccc(N)cc1)[C@@H]1[C@@H]2CC[C@]2(C)C(=O)CC[C@@H]12 : 54.8
C[C@]12CC[C@H]3[C@@H](CCC4=CC(=O)CC[C@@]43/C=N\O)[C@@H]1CCC2=O : 8.6

Please turn your attention to the following entry.
Task: Name the reported Inhibition value associated with the compound C[C@]12CC[C@H]3[C@@H](CCC4=CC(=O)CC[C@@]43CNC(=O)C(F)(F)F)[C@@H]1CCC2=O
Result: 2.5

###

# tested-target: Aromatase (Homo sapiens)
# assay-remarks: Inhibition of 1.25 uM [1-3H]-androst-4-ene-3,17-dione binding to Cytochrome P450 19A1
test-readout: Inhibition (%)
Please state the figure in %; there is no need to write the unit.

Sample answers from the record:
C[C@]12CCC(=O)C=C1C[C@@H](Sc1ccc(N)cc1)[C@@H]1[C@@H]2CC[C@]2(C)C(=O)CC[C@@H]12 : 83.1
C[C@]12CCC(=O)C(O)=C1CC[C@@H]1[C@@H]2CC[C@]2(C)C(=O)CC[C@@H]12 [FORMESTANE] : 81.6
C[C@]12CC[C@H]3[C@@H](CCC4=CC(=O)CC[C@@]43CNC(=O)C(F)(F)F)[C@@H]1CCC2=O : 11.4
C[C@]12CC[C@H]3[C@@H](CCC4=CC(=O)CC[C@@]43/C=N\O)[C@@H]1CCC2=O : 4.1

Next:
Task: # input compound: CC(=O)NC[C@]12CCC(=O)C=C1CC[C@@H]1[C@@H]2CC[C@]2(C)C(=O)CC[C@@H]12 ; wanted: its Inhibition
Result: 13.2

###

# tested-target: Aromatase (Homo sapiens)
# assay-remarks: Inhibition of 0.25 uM [1-3H]-androst-4-ene-3,17-dione binding to Cytochrome P450 19A1
Reported values of Inhibition for individual entries

CC(=O)NC[C@]12CCC(=O)C=C1CC[C@@H]1[C@@H]2CC[C@]2(C)C(=O)CC[C@@H]12 : < 2%
COC(=O)N[C@]12CCC(=O)C=C1CC[C@H]1[C@@H]3CCC(=O)[C@@]3(C)CC[C@@H]12 : < 2%

Kindly consider the entry below.
Task: For C[C@]12CC[C@H]3[C@@H](CCC4=CC(=O)CC[C@@]43N=C=O)[C@@H]1CCC2=O , what is its reported Inhibition?
Result: < 2%
